Tested on: Nucleic Acid
Assay Overview: Binding affinity to human 21-TT G-quadruplex DNA structure at 1:5 DNA to calf thymus DNA ratio by competitive inhibition assay
Assay type: nucleic-acid assay
Parameters: concentration or dose not given beside the values
Measure: Activity (%)
One number for each entry, in %.

// below: answered molecules
O=C1c2ccc3c4c(N5CCCCC5)cc5c6c(ccc(c7c(N8CCCCC8)cc(c2c37)C(=O)N1CCN1CCCCC1)c64)C(=O)N(CCN1CCCCC1)C5=O	9
CN(C)CCCN1CCN(c2cc3c4c(ccc5c6ccc7c8c(ccc(c2c45)c86)C(=O)N(CCN2CCCCC2)C7=O)C(=O)N(CCN2CCCCC2)C3=O)CC1	32
O=C1c2ccc3c4c(N5CCCCC5)cc5c6c(ccc(c7c(N8CCCCC8)cc(c2c37)C(=O)N1CCOCCN1CCCCC1)c64)C(=O)N(CCOCCN1CCCCC1)C5=O	14
O=C1c2ccc3c4ccc5c6c(cc(N7CCCCC7)c(c7ccc(c2c37)C(=O)N1CCOCCN1CCCCC1)c64)C(=O)N(CCOCCN1CCCCC1)C5=O	39

Looking for the measured Activity of `CN1CCN(c2cc3c4c(ccc5c6c(N7CCN(C)CC7)cc7c8c(ccc(c2c45)c86)C(=O)N(CCN2CCCCC2)C7=O)C(=O)N(CCN2CCCCC2)C3=O)CC1` , can you help?
22

---

Test system: Nucleic Acid
Assay Overview: Binding affinity to human 21-TT G-quadruplex DNA structure assessed as first step association constant by electrospray ionization mass spectrometry
Assay type: nucleic-acid assay
Measure: log Ks
Numbers only.

// below: answered compounds
O=C1c2ccc3c4c(N5CCCCC5)cc5c6c(cc(N7CCCCC7)c(c7ccc(c2c37)C(=O)N1CCOCCN1CCCCC1)c64)C(=O)N(CCOCCN1CCCCC1)C5=O	4.8
O=C1c2ccc3c4ccc5c6c(cc(N7CCCCC7)c(c7ccc(c2c37)C(=O)N1CCOCCN1CCCCC1)c64)C(=O)N(CCOCCN1CCCCC1)C5=O	5.8

Next item in the queue.
Fill in the recorded log Ks for this compound, with Nucleic Acid as test system: `CNCCOCCN1C(=O)c2ccc3c4c(N5CCCCC5)cc5c6c(ccc(c7c(N8CCCCC8)cc(c2c37)C1=O)c64)C(=O)N(CCOCCNC)C5=O`
4.6

---

Provide the reported Activity of each item.
Test system: Nucleic Acid
Assay Overview: Binding affinity to human 21-TT G-quadruplex DNA structure at 1:1 DNA to calf thymus DNA ratio by competitive inhibition assay
Type: nucleic-acid assay
Design: concentration or dose not given beside the values

// below: answered compounds
CN1CCN(c2cc3c4c(ccc5c6c(N7CCN(C)CC7)cc7c8c(ccc(c2c45)c86)C(=O)N(CCN2CCCCC2)C7=O)C(=O)N(CCN2CCCCC2)C3=O)CC1	40%
O=C1c2ccc3c4ccc5c6c(cc(N7CCCCC7)c(c7ccc(c2c37)C(=O)N1CCOCCN1CCCCC1)c64)C(=O)N(CCOCCN1CCCCC1)C5=O	47%
O=C1c2ccc3c4c(N5CCCCC5)cc5c6c(ccc(c7c(N8CCCCC8)cc(c2c37)C(=O)N1CCN1CCCCC1)c64)C(=O)N(CCN1CCCCC1)C5=O	13%
O=C1c2ccc3c4c(N5CCCCC5)cc5c6c(ccc(c7c(N8CCCCC8)cc(c2c37)C(=O)N1CCOCCN1CCCCC1)c64)C(=O)N(CCOCCN1CCCCC1)C5=O	19%

Next item in the queue.
Looking for the measured Activity of `CN(C)CCCN1CCN(c2cc3c4c(ccc5c6ccc7c8c(ccc(c2c45)c86)C(=O)N(CCN2CCCCC2)C7=O)C(=O)N(CCN2CCCCC2)C3=O)CC1` , can you help?
46%
